Molecular target: haspin kinase (Homo sapiens)
Sequence (Q8TF76 1-798): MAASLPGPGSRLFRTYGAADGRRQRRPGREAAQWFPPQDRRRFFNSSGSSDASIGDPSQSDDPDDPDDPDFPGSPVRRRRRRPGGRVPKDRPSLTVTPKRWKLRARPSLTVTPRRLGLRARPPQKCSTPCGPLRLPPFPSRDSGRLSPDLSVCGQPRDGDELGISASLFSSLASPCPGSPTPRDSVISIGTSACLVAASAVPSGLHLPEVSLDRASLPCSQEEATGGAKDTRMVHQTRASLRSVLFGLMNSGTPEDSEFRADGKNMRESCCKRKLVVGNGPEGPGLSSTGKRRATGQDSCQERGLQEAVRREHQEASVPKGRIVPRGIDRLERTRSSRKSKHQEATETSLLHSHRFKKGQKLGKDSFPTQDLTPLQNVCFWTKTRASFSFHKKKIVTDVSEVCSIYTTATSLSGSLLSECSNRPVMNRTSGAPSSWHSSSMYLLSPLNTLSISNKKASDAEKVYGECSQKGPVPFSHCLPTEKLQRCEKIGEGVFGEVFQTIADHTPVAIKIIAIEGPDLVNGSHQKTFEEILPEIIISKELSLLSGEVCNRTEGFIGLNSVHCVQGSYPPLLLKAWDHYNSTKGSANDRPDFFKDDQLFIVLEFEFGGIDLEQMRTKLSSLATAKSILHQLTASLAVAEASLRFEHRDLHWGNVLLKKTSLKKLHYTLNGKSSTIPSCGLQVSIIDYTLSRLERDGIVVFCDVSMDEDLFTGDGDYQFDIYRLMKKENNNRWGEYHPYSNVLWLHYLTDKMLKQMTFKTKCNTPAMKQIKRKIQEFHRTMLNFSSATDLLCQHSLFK
Experiment: Haspin kinase activity, ADP-Glo kinase assay, single concentration
Format: biochemical
Conditions: 100 nM compound, 3 h, Figure 2
reported-property: haspin inhibition (in words)

>>> experimental_result("Oc1cc(F)c(-c2nc3ccc4[nH]ncc4c3c3c2CCCC3)cc1F [Compound 10]")
"decreased potency"
>>> experimental_result("Oc1ccc(-c2nc3ccc4[nH]ncc4c3c3c2CCCC3)c(F)c1F [Compound 21]")
"decreased potency"

====

tested on: HCT116 cells; test: Antiproliferative activity, CellTiter-Blue viability; assay type: cell-based; conditions: HCT116, 10 μM, 72 h
reported-property: antiproliferative activity (in words)

>>> experimental_result("Oc1ccc(-c2nc3c(ccc4cn[nH]c43)c3c2CCCC3)cc1")
"performed poorly"
>>> experimental_result("N#Cc1n[nH]c2ccc3nc(-c4ccc(O)cc4)c4c(c3c12)CCCC4")
"performed poorly"

Sourced from paper PMC5972072
